Where do these numbers come from? They come from patent US20040224958A1.

- target entity: Cdk5/p25 (Homo sapiens)
- assay procedure: Cyclin-Dependent Kinase 5 High Throughput Screening (cdk5-HTS) Assay
- Format: biochemical
- measurement conditions: high throughput screen
pIC50: −log10 of the molar value.
Please enter true (1) where pIC50 is greater than or equal to 7, and false (0) where it is lower.

# count of solved cases: 5
O=c1ccc2cnc(Nc3cc([N+](=O)[O-])ccc3F)nc2n1CC1CC1 [Example 572]; false (0)
CCCn1c(=O)ccc2cnc(Nc3ccc(O)c(CN4CCOCC4)c3)nc21 [Example 355]; false (0)
CCCCn1c(=O)ccc2cnc(Nc3cccc(S(N)(=O)=O)c3)nc21 [Example 402]; true (1)
Cc1cc(C)cc(Nc2ncc3ccc(=O)n(C4CCCC4)c3n2)c1 [Example 544]; true (1)
COc1cc(Nc2ncc3ccc(=O)n(C)c3n2)cc(OC)c1OC [Example 619]; false (0)

Exam item: Hi team, for CCn1c(=O)ccc2cnc(Nc3ccc(O)cc3F)nc21 [Example 289] , is the recorded pIC50 at or above 7?
Marked response: false (0)

Exam item: Given CCCCn1c(=O)ccc2cnc(Nc3ccc(OC)c(Cl)c3)nc21 [Example 365] , state whether its pIC50 is at least 7.
Marked response: true (1)

Exam item: hey, is pIC50 for this one >= 7? CCn1c(=O)ccc2cnc(Nc3ccc(O)c(Cl)c3)nc21 [Example 290]
Marked response: false (0)

Exam item: Textbook exercise: given the entry CCC(C)n1c(=O)ccc2cnc(Nc3ccc4[nH]ccc4c3)nc21 (stereo not shown) [Example 447] , state whether its pIC50 is greater than or equal to 7.
Marked response: true (1)

Exam item: Form field: pIC50 at least 7? Entry: O=c1ccc2cnc(Nc3cc(F)cc(F)c3)nc2n1CC1CC1 [Example 575]
Marked response: false (0)

Exam item: Quick check, pIC50 >= 7? CCC(C)n1c(=O)ccc2cnc(Nc3cc(F)cc(F)c3)nc21 (stereo not shown) [Example 472]
Marked response: true (1)

Exam item: Is pIC50 at least 7? Consider O=c1ccc2cnc(Nc3cc(Cl)c(O)c(Cl)c3)nc2n1C1CCCC1 [Example 540]
Marked response: false (0)

Exam item: Would you say CCn1c(=O)ccc2cnc(Nc3cc(OC)cc(C(F)(F)F)c3)nc21 [Example 300] shows pIC50 at minimum 7?
Marked response: false (0)

Exam item: hey, is pIC50 for this one >= 7? Cc1ccc(Nc2ncc3ccc(=O)n(C4CCCC4)c3n2)cc1Cl [Example 545]
Marked response: true (1)

Exam item: Please check the record CCCn1c(=O)ccc2cnc(Nc3ccc(F)c(C(F)(F)F)c3)nc21 [Example 335] and state if its pIC50 is at or above 7.
Marked response: false (0)

---

- target entity: cdk2/cyclinA (Homo sapiens)
- assay procedure: Cyclin-Dependent Kinase Assay cdk2/cyclinA
- measurement conditions: cdk2/A IC50
pIC50: −log10 of the molar value.
Returns one of T or F; T when pIC50 is >= 7.

CCC(C)n1c(=O)ccc2cnc(Nc3ccc(C)c(I)c3)nc21 (stereo not shown); F
CCCn1c(=O)ccc2cnc(Nc3cc(F)cc(F)c3)nc21; F
CC(C)n1c(=O)ccc2cnc(Nc3ccc4c(c3)CCCC4=O)nc21; F
CC1Nc2ccc(Nc3ncc4ccc(=O)n(C5CCCC5)c4n3)cc2C1C (stereo not shown); F
CCC(CC)n1c(=O)ccc2cnc(Nc3cc(F)cc(F)c3)nc21; F

Exam item: Quick check: does CCn1c(=O)ccc2cnc(Nc3ccc4[nH]nnc4c3)nc21 have pIC50 greater than or equal to 7?
Marked response: F

Exam item: Is reported pIC50 greater than or equal to 7 here: CCCn1c(=O)ccc2cnc(Nc3ccc(C)c(F)c3)nc21
Marked response: F

Exam item: Does the reported pIC50 for CC(C)n1c(=O)ccc2cnc(Nc3ccc(C(F)(F)F)cc3)nc21 fall at or above the 7 mark?
Marked response: F

---

- target entity: cdk2/cyclinE (Homo sapiens)
- assay procedure: Cyclin-Dependent Kinase Assay cdk2/cyclinE
- measurement conditions: cdk2/E IC50
Kindly supply the reported pIC50 values for the records listed here.
Give bare numbers, as −log10 of the molar value.

O=C(O)c1cc(Nc2ncc3ccc(=O)n(C4CCCC4)c3n2)ccc1O; 6.43
CCCCn1c(=O)ccc2cnc(Nc3ccc(Cl)c(C(F)(F)F)c3)nc21; 6.07
CC(=O)Nc1cc(Nc2ncc3ccc(=O)n(CC4CC4)c3n2)ccc1C; 6.49
CC(=O)Nc1ccc(Nc2ncc3ccc(=O)n(C(C)C)c3n2)cc1; 7.04

Now for the compound whose pIC50 we want.
Exam item: Tell me pIC50 reported for CCCCn1c(=O)ccc2cnc(Nc3ccc4[nH]ncc4c3)nc21
Marked response: 7.56

---

- target entity: cdk4/D (Homo sapiens, UniProt P11802)
- Sequence (P11802 whole entry): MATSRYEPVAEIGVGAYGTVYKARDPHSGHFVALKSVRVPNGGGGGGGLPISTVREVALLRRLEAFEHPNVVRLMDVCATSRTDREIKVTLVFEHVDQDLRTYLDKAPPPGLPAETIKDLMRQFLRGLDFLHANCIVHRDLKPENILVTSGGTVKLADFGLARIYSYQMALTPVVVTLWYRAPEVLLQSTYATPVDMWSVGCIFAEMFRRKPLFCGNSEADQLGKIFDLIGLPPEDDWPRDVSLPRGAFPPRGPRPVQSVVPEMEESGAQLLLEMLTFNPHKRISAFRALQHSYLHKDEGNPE
- Sequence (P24385 whole entry, further chain): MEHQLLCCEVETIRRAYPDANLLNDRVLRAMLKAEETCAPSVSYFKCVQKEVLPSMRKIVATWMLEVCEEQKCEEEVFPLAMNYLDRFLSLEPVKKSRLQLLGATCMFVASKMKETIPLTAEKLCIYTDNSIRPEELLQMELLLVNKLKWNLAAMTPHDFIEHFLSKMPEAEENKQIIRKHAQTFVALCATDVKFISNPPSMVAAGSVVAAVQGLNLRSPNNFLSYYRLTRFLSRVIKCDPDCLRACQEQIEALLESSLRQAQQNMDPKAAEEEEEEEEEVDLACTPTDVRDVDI
- assay procedure: Cyclin-Dependent Kinase 4 (cdk4) Assay
- Type: biochemical
- measurement conditions: Table 1; read-out: cdk4/D IC50
value type: pIC50
Numbers only, as −log10 of the molar value.

O=c1ccc2cnc(Nc3ccc(N4CCC(CCCO)CC4)cc3)nc2n1C1CC2CCC1C2 (stereo not drawn); 8.10

Please give pIC50, item by item, for the list that follows.
1. O=c1ccc2cnc(Nc3ccc(-n4cccn4)cc3)nc2n1C1CCCCC1
2. O=c1ccc2cnc(Nc3cccc(N4CCCCC4)c3)nc2n1C1CCCCC1

Marked response:
7.05
6.30

Each molecule below has a recorded value; state its pIC50.
1. O=c1ccc2cnc(Nc3ccc(SC(F)(F)F)cc3)nc2n1C1CC2CCC1C2 (stereo not drawn)
2. CCN(CC)CCOc1ccc(Nc2ncc3ccc(=O)n(-c4ccccc4)c3n2)cc1
3. O=c1ccc2cnc(Nc3ccc(N4CCCC(CO)C4)cc3)nc2n1C1CC2CCC1C2 (stereo not drawn)
4. O=c1ccc2cnc(Nc3ccccc3)nc2n1Cc1ccccc1
5. CC1CN(c2ccc(Nc3ncc4ccc(=O)n(C5CCCCC5)c4n3)cc2)CC(C)N1 (stereo not drawn)
6. CC1CCN(c2ccc(Nc3ncc4ccc(=O)n(C5CCCCC5)c4n3)cc2)CC1
7. O=c1ccc2cnc(Nc3ccc(N4CCC(O)CC4)cc3)nc2n1C1CC2CCC1C2 (stereo not drawn)
8. O=c1ccc2cnc(Nc3ccc(N4CCCC4)cc3)nc2n1C1CCCCC1

Marked response:
[6.49, 6.70, 8.68, 6.03, 8.35, 8.35, 8.55, 6.76]

Provide reported pIC50 for each item, in the same order as listed.
1. CCN(CC)CCOc1ccc(Nc2ncc3ccc(=O)n(C4CC4)c3n2)cc1
2. O=c1ccc2cnc(Nc3ccc(N4CCC(CCO)CC4)cc3)nc2n1C1CCCC1
3. O=c1ccc2cnc(Nc3ccc(F)cc3)nc2n1C1CCCCC1

Marked response:
1: 7.28; 2: 7.77; 3: 6.71

---

- target entity: Cdk5/p25 (Homo sapiens)
- assay procedure: Cyclin-Dependent Kinase 5 High Throughput Screening (cdk5-HTS) Assay
- Assay type: biochemical
- measurement conditions: high throughput screen
pIC50: −log10 of the molar value.
Class true: pIC50 at least 7. Class false: pIC50 below 7.

Answered examples (5):
CCCn1c(=O)ccc2cnc(Nc3cc(OC)cc(C(F)(F)F)c3)nc21 [Example 342]; false
CC(C)n1c(=O)ccc2cnc(Nc3cc(Cl)cc(Cl)c3)nc21 [Example 429]; true
COc1cc(Nc2ncc3ccc(=O)n(C(C)C)c3n2)cc(OC)c1OC [Example 417]; false
CCCCn1c(=O)ccc2cnc(Nc3c(F)cc(F)cc3F)nc21 [Example 366]; false
CCC(CC)n1c(=O)ccc2cnc(Nc3ccc(F)c(F)c3)nc21 [Example 509]; true

In the following, a different compound is considered.
Exam item: Could you tell me if the measured pIC50 of CC(=O)Nc1ccc(Nc2ncc3ccc(=O)n(C(C)C)c3n2)cc1 [Example 414] reaches 7 or more?
Marked response: true

---

value type: melting point

O=c1ccc2cnc(Nc3ccc(OC(F)(F)C(F)F)cc3)nc2n1C1CC2CCC1C2 (stereo not drawn); 214 to 215 °C
CC(C)n1c(=O)ccc2cnc(Nc3ccc(O)cc3)nc21 [Example 624]; > 220 °C
CCN(CC)CCOc1ccc(Nc2ncc3ccc(=O)n(CCOCc4ccccc4)c3n2)cc1; 95 to 97 °C

For each of the compounds below, state melting point.
1. CCn1c(=O)ccc2cnc(NC3CCCCC3)nc21
2. CN1CCN(c2ccc(Nc3ncc4ccc(=O)n(CCOCc5ccccc5)c4n3)cc2)CC1

Marked response:
1. 135 to 136 °C
2. 183 to 191 °C

Record melting point per entry; entries follow.
1. CCn1c(=O)ccc2cnc(Nc3cccc(OC(F)(F)C(F)F)c3)nc21
2. CCn1c(=O)ccc2cnc(Nc3ccc(N(C)C)cc3)nc21
3. CCN(CC)CCOc1ccc(Nc2ncc3ccc(=O)n(C4CC5CCC4C5)c3n2)cc1 (stereo not drawn)

Marked response:
1. 175 to 176 °C
2. 189 to 191 °C
3. 133 to 134 °C

---

Would you kindly list melting point for each of these compounds?

Some compounds with known melting point results, for comparison:
O=c1ccc2cnc(Nc3ccccc3)nc2n1CCCOc1ccccc1; 175 to 176 °C
O=c1ccc2cnc(Nc3ccc(N4CCCC(CCCO)C4)cc3)nc2n1C1CC2CCC1C2 (centres unmarked); 150 to 151 °C
O=c1ccc2cnc(Nc3ccc(N4CCC(CCO)CC4)cc3)nc2n1C1CCCC1; 199 to 200 °C
O=c1ccc2cnc(Nc3ccc(N4CCC(CCCN5CCOCC5)CC4)cc3)nc2n1C1CC2CCC1C2 (centres unmarked) [Example 235]; 197 to 198 °C

Exam item: Supply measured melting point of O=c1ccc2cnc(Nc3ccc(-n4cccc4)cc3)nc2n1C1CCCCC1 in your reply.
Marked response: 183 to 184 °C
